These entries and their values trace back to patent US20160319277A1.

# Test system: T-REx-293-NTSR1-GFP cells
# TEST: High-throughput human miRNA mimic library screen, image-based per cell green fluorescence (NTSR1-GFP expression)
# TEST PARAMETERS: per cell green fluorescence intensity
Quick rule: Signal relative to negative control (%) of at least 200% means fulfilled, below that means not fulfilled.

SEQUENCE TEXT	ANSWER LABEL
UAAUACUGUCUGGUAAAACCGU (listed as RNA, chemistry not given here; listed as Homo sapiens) [miR-429, human miRNA mimic]	fulfilled
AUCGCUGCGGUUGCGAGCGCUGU (listed as RNA, chemistry not given here; listed as Homo sapiens) [miR-639, human miRNA mimic]	not fulfilled
GCUACUUCACAACACCAGGGCC (listed as RNA, chemistry not given here; listed as Homo sapiens) [miR-138-1-3p, human miRNA mimic]	not fulfilled
ACCUGGCAUACAAUGUAGAUUU (listed as RNA, chemistry not given here; listed as Homo sapiens) [miR-221-5p, human miRNA mimic]	fulfilled
AACUGGCCUACAAAGUCCCAGU (listed as RNA, chemistry not given here; listed as Homo sapiens) [miR-193a-3p, human miRNA mimic]	not fulfilled
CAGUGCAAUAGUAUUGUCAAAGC (listed as RNA, chemistry not given here; listed as Homo sapiens) [miR-301a-3p, human miRNA mimic]	not fulfilled
AGGAGGCAGCGCUCUCAGGAC [miR-650]	not fulfilled

====

# Tested on: HEK-CMV-Luc2-Hygro cells
# TEST: High-throughput genome-wide siRNA screen and validation screen for luciferase expression
# Assay type: cell-based, human
# TEST PARAMETERS: Table 4; primary screen, 72 h, negative control = 100%
MEASURED ENDPOINT: Viable cell density (%)

SUBSTANCE	MEASURED ENDPOINT	MEAS VALUE
124 (GAAUAACCGUUGGUUUAAUTT; chemistry not given here; listed as Homo sapiens) [compound 124]	Viable cell density (%)	65.083
129 (GCUAUUUCCAGCGAAUAUATT; chemistry not given here; listed as Homo sapiens) [compound 129]	Viable cell density (%)	81.492
140 (GUCCGAGUGUGGUUCUGUATT; chemistry not given here; listed as Homo sapiens) [compound 140]	Viable cell density (%)	85.820

====

Luciferase activity (%) values for the substances below.
# Tested on: HEK-CMV-Luc2-Hygro cells
# TEST: High-throughput genome-wide siRNA screen and validation screen for luciferase expression
# Format: cell-based, human
# TEST PARAMETERS: Table 6; polyamine pathway gene siRNAs

SUBSTANCE	SYSTEM NAME	UNITS LABEL	Luciferase activity (%)
223 (GAUGACUUUUGAUAGUGAATT; chemistry not given here; listed as Homo sapiens) [compound 223]	HEK-CMV-Luc2-Hygro cells	%	18.0
219 (CAGAUGGAUUAUUAGCUGATT; chemistry not given here; listed as Homo sapiens) [compound 219]	HEK-CMV-Luc2-Hygro cells	%	94.9
225 (GCUUGCAGUUAAUAUCAUUTT; chemistry not given here; listed as Homo sapiens) [compound 225]	HEK-CMV-Luc2-Hygro cells	%	28.4

====

# Tested on: HEK-CMV-Luc2-Hygro cells
# TEST: High-throughput genome-wide siRNA screen and validation screen for luciferase expression
# Type: cell-based, human
# TEST PARAMETERS: Table 6; polyamine pathway gene siRNAs
Quick rule: Viable cell number (%) of at least 70% means 1, below that means -1.

SUBSTANCE	SYSTEM NAME	ANSWER LABEL
226 (CACUCGCAGUUAAUAUCAUTT; chemistry not given here; listed as Homo sapiens) [compound 226]	HEK-CMV-Luc2-Hygro cells	-1
155 (GCCUUGCUCCGAACCUUCATT; chemistry not given here; listed as Homo sapiens) [compound 155]	HEK-CMV-Luc2-Hygro cells	1
216 (GGGAAUAGUCAGAGGGAUCTT; chemistry not given here; listed as Homo sapiens) [compound 216]	HEK-CMV-Luc2-Hygro cells	1
223 (GAUGACUUUUGAUAGUGAATT; chemistry not given here; listed as Homo sapiens) [compound 223]	HEK-CMV-Luc2-Hygro cells	-1
225 (GCUUGCAGUUAAUAUCAUUTT; chemistry not given here; listed as Homo sapiens) [compound 225]	HEK-CMV-Luc2-Hygro cells	-1
220 (CCGGGAAAGUUUGACUGCATT; chemistry not given here; listed as Homo sapiens) [compound 220]	HEK-CMV-Luc2-Hygro cells	1
